molecular target: wild-type Androgen Receptor (AR-wt) (Homo sapiens (Human), UniProt P10275); experiment: LNCaP-AR-wt ANT reporter assay (antagonist mode); type: cell-based; conditions: antagonist mode; maximum % inhibition of R1881 control response over tested concentration range; read-out: LNCaP-AR-wt ANT MAX % Inh
Sequence (P10275 whole entry): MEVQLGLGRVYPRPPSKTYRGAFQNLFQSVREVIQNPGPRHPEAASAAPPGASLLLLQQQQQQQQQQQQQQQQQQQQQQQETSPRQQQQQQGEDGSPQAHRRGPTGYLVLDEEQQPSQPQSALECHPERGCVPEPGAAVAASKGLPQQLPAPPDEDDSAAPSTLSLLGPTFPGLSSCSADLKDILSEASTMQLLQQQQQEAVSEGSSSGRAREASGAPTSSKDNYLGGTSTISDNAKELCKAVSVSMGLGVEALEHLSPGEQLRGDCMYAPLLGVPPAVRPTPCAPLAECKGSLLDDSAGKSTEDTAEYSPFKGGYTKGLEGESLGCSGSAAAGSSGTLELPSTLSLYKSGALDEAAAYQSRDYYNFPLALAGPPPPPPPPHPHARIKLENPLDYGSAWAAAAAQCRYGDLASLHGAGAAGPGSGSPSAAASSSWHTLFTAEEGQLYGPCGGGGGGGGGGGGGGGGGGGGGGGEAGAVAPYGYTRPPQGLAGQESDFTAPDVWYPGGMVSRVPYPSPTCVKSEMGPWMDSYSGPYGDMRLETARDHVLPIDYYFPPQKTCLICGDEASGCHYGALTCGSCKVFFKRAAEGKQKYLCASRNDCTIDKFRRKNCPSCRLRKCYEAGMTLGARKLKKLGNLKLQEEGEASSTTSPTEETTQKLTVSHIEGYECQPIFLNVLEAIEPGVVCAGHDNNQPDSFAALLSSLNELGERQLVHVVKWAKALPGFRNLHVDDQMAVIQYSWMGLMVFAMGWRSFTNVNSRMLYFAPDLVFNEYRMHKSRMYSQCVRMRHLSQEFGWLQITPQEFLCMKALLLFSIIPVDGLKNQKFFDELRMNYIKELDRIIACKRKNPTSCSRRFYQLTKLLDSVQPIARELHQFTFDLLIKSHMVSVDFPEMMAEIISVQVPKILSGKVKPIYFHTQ
Could you please report measured Emax for the items listed next?
Numbers only, in %.

Look over these answered cases.
Compound: Cn1cnc2cc(N3C(=S)N(c4cnc(C#N)c(C(F)(F)F)c4)C(=O)C34CCC4)ccc21
Emax, %: 98.7
//
Compound: N#Cc1ncc(N2C(=O)C3(CCC3)N(c3ccc(O[C@@H]4CCN[C@H](CO)C4)cc3)C2=S)cc1C(F)(F)F (racemic)
Emax, %: 101
//
Compound: CN1CC(CNC(=O)c2ccc(N3C(=S)N(c4cnc(C#N)c(C(F)(F)F)c4)C(=O)C34CCC4)cc2)C1
Emax, %: 98.8

For the next question, use this compound.
Field request: Emax | item: C[N@+]1([O-])CC[C@@H](Oc2ccc(N3C(=S)N(c4cnc(C#N)c(C(F)(F)F)c4)C(=O)C34CCC4)cc2)CC1
99.4
